Molecular target: T1, human iRhom2 (inactive rhomboid protein 2, isoform 1), endogenously expressed on human cells (human, UniProt Q6PJF5 1-856)
T1 sequence: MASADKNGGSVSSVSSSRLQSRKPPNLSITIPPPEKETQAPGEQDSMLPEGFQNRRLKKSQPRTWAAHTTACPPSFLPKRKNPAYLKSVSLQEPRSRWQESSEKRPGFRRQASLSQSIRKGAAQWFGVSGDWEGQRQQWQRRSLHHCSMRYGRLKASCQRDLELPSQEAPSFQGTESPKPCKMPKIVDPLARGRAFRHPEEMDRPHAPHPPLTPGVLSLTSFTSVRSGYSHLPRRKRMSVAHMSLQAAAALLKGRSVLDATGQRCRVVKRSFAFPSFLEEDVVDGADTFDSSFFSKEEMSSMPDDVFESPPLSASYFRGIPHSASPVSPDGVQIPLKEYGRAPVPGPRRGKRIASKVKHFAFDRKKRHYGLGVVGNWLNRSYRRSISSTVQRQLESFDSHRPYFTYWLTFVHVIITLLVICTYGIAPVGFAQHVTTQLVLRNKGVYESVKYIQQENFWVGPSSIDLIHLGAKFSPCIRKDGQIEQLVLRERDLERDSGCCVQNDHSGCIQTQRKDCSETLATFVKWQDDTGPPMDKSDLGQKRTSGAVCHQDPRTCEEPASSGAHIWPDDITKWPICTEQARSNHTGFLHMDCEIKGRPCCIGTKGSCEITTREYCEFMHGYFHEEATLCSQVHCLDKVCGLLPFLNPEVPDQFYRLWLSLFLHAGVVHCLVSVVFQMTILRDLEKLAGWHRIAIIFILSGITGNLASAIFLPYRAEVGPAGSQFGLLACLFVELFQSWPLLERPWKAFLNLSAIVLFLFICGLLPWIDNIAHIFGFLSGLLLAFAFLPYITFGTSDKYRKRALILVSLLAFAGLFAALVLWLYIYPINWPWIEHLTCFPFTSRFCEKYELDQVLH
Test: cell-based or functional assay
attribute_measured: inhibition of PMA-induced release of IL-6R from U-937 cells, 3 µg/ml (% inhibition)
Give bare numbers, in % inhibition.

antibody 44 (antibody, V domains shown, Mouse IgG, kappa light chain; also called clone #44; m44) VH: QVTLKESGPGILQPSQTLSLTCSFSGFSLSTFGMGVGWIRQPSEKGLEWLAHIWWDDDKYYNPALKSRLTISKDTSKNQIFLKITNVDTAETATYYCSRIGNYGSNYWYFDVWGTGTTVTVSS VL: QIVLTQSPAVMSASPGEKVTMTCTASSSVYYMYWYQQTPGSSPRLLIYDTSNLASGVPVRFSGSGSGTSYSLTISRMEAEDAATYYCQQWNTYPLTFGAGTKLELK : 82

List reported inhibition of PMA-induced release of IL-6R from U-937 cells, 3 µg/ml for each of these binders:
1. antibody 34 (antibody, V domains shown, Mouse IgG, kappa light chain; also called clone #34; m34) VH: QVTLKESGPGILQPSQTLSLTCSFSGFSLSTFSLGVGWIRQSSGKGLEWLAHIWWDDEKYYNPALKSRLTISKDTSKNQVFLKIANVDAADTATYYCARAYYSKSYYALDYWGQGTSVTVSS VL: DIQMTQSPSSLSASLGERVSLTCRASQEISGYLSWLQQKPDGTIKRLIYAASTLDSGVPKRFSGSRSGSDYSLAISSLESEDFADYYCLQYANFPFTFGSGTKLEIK
2. chimeric version of antibody 16 (antibody, V domains shown, Chimeric version made in CHO cells, detected with anti-human IgG; the variable domains are those of clone #16; also called ch16) VH: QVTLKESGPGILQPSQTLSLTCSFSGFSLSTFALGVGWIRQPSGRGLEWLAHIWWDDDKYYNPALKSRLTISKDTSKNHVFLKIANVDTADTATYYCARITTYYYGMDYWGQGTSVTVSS VL: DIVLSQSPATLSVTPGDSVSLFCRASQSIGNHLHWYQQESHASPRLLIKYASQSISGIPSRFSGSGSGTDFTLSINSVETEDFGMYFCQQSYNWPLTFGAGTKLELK
3. antibody 42 (antibody, V domains shown, Mouse IgG, kappa light chain; also called clone #42; m42) VH: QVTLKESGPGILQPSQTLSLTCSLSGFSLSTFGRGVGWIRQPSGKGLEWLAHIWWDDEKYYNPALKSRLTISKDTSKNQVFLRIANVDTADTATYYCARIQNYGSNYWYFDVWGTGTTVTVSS VL: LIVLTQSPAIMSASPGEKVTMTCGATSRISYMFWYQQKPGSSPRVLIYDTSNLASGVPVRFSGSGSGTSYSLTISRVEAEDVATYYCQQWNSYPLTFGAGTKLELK

Marked response:
1: 74.6; 2: 84.3; 3: 84.4
